Header: IC50 / Cholecystokinin receptor type A (Mus musculus, UniProt O08786) / multiple publications
- ASSAY SYSTEM: Cholecystokinin receptor type A (Mus musculus, UniProt O08786)
- Sequence (O08786 whole entry): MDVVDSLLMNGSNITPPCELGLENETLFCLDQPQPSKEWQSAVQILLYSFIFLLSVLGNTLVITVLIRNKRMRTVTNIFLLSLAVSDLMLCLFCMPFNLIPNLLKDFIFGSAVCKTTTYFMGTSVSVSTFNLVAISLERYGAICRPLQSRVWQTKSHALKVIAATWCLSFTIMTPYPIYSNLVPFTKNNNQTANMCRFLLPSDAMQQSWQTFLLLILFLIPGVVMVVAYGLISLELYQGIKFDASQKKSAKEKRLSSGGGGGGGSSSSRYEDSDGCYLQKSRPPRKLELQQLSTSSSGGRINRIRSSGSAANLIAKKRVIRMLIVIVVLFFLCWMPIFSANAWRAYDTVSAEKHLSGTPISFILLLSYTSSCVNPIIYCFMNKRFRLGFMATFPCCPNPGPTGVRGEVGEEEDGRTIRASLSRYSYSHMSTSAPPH
ENDPOINT: IC50 (nM)

Some entries whose results are on file:
Challenge: Give the measured IC50 for CN1C(=O)[C@H](NC(=O)Nc2cccc(COC(=O)NCC(=O)NCCCOc3cccc(CN4CCCCC4)c3)c2)N=C(c2ccccc2)c2ccccc21
Response given: 6100

Challenge: Give the measured IC50 for Cc1cccc(NC(=O)NC2N=C(c3ccccc3)c3ccccc3N(CC(=O)NCCC(=O)NCCSCc3csc(N=C(N)N)n3)C2=O)c1 (configuration not stated)
Response given: 390

Challenge: Give the measured IC50 for Cc1cccc(NC(=O)N[C@@H]2N=C(c3ccccc3)c3ccccc3N(CCOC(=O)NCCCC(=O)NCCCOc3cccc(CN4CCCCC4)c3)C2=O)c1
Response given: 4600

P. CN1C(=O)[C@H](NC(=O)Nc2cccc(CCOC(=O)NCCC(=O)NCCCOc3cccc(CN4CCCCC4)c3)c2)N=C(c2ccccc2)c2ccccc21
Q. CN1C(=O)[C@H](NC(=O)Nc2cccc(CC(=O)NCCCC(=O)NCCCOc3cccc(CN4CCCCC4)c3)c2)N=C(c2ccccc2)c2ccccc21
R. Cc1cccc(NC(=O)NC2N=C(c3ccccc3)c3ccccc3N(CC(=O)NCCCCCC(=O)NCCCOc3cccc(CN4CCCCC4)c3)C2=O)c1 (configuration not stated)
S. CC(C)C[C@H](NC(=O)[C@H](Cc1c[nH]c2ccccc12)NC(=O)OCc1ccccc1)C(=O)N1CC(=O)N[C@H](Cc2ccccc2)C1
Challenge: Arrange these compounds by their IC50, starting with the largest number. Enter labels, ranked according to the request.
Response given: P, R, Q, S
(P: 4200 nM, R: 650 nM, Q: 330 nM, S: 14 nM)

----------
Header: IC50 / Cholecystokinin receptor type A (Mus musculus) / multiple publications
ENDPOINT: IC50 (µM)

Challenge: Report its IC50 with Cholecystokinin receptor type A (Mus musculus) as the test system: CC(C)C[C@H](NC(=O)[C@H](Cc1c[nH]c2ccccc12)NC(=O)OC(C)(C)C)C(=O)N1C[C@H](c2ccccc2)NC(=O)[C@@H]1CC(=O)O
Response given: 9.4

P. Cc1cccc(NC(=O)N[C@@H]2N=C(c3ccccc3)c3ccccc3N(CCOC(=O)NCCCC(=O)NCCSCc3csc(N=C(N)N)n3)C2=O)c1
Q. Cc1cccc(NC(=O)NC2N=C(c3ccccc3)c3ccccc3N(CC(=O)NCCC(=O)NCCCOc3cccc(CN4CCCCC4)c3)C2=O)c1 (stereo not drawn)
Challenge: Compare the recorded IC50 of P and Q ; state which is larger. Mark your answer with the label of the selected entry.
Response given: P
(P: 4.4 µM, Q: 1.3 µM)

----------
Header: IC50 / Cholecystokinin receptor type A (Mus musculus) / multiple publications
ENDPOINT: IC50 (µM)

Challenge: Report its IC50 with Cholecystokinin receptor type A (Mus musculus) as the test system: CC(C)C[C@H](NC(=O)[C@H](Cc1c[nH]c2ccccc12)NC(=O)OC(C)(C)C)C(=O)N1C[C@H](Cc2ccccc2)NC(=O)[C@@H]1CC(=O)O
Response given: 0.84

a. CC(C)C[C@H](NC(=O)[C@H](Cc1c[nH]c2ccccc12)NC(=O)OC(C)(C)C)C(=O)N1C[C@@H](Cc2ccccc2)NC(=O)[C@@H]1CC(=O)O
b. Cc1cccc(NC(=O)NC2C(=O)N(CC(=O)N3CCCC3)c3ccccc3N(CC(=O)N3CCCC3)C2=O)c1
c. Cc1cccc(NC(=O)NC2N=C(c3cccc(OCC(=O)NCC(=O)NCCCOc4cccc(CN5CCCCC5)c4)c3)c3ccccc3N(C)C2=O)c1 (configuration not stated)
d. Cc1cccc(NC(=O)NC2N=C(c3cccc(OCC(=O)NCCCOc4cccc(CN5CCCCC5)c4)c3)c3ccccc3N(C)C2=O)c1 (configuration not stated)
Challenge: Arrange these compounds by their IC50, starting with the largest number. Enter labels, ranked according to the request.
Response given: d, c, a, b

P. CN1C(=O)[C@H](NC(=O)Nc2cccc(COC(=O)NCCN3CCN(C(=O)CNCCCOc4cccc(CN5CCCCC5)c4)CC3)c2)N=C(c2ccccc2)c2ccccc21
Q. Cc1cccc(NC(=O)NC2N=C(c3cccc(OCC(=O)NCCCCCC(=O)NCCCOc4cccc(CN5CCCCC5)c4)c3)c3ccccc3N(C)C2=O)c1 (configuration not stated)
Challenge: Lower value for measured IC50? Options: P , Q Mark your answer with the label of the selected entry.
Response given: P
(P: 0.74 µM, Q: 3.6 µM)
